Cited source for all entries: ChEMBL document CHEMBL1255181

Reported pIC50, Acetylcholinesterase (Homo sapiens, UniProt P22303).
Please note pIC50 is a logarithmic value: minus log10 of concentration in mol/L. Answer with that number alone.

Solved entries:
CCNc1c2c(nc3ccc(OC)cc13)CCCC2 : 4.18
CCCCNc1c2c(nc3ccc(OC)cc13)CCCC2 : 4.68
CCCCCNc1c2c(nc3ccc(OC)cc13)CCCC2 : 5.17

Exam item: Any idea what its pIC50 is? The compound is CCCCCCCNc1c2c(nc3ccc(OC)cc13)CCCC2
Marked response: 6.57

Exam item: Then what about the compound CCCCCCCCCCCCCNc1c2c(nc3ccc(OC)cc13)CCCC2 ?
Marked response: 4.00

Exam item: Then what about the compound CCCCCCCCCCCCNc1c2c(nc3ccc(OC)cc13)CCCC2 ?
Marked response: 6.00

Exam item: Then what about the compound CCCNc1c2c(nc3ccc(OC)cc13)CCCC2 ?
Marked response: 5.04
